molecular target: DN-III quality control recombinant protein (produced by Fapon Biotech InC.) (dengue virus); test: BLI, AMC sensor, antibody captured
Please respond with reported pKd for every item in the list.
To interpret pKd, take it as minus log10 of a concentration measured in moles per litre.

Briefly, pKd measured for Mutation 1-26 (antibody, V domains shown) VH: EVQLQQSGTELVRPGALVKLSCKASGFNIKDYYLHWVKQRPRQGLEWIGWIDPENGKTLYDPKFQDKASITSDTSTNTAYLQLRSLTSEDTAVYYCVTAYYRFVYWGQGTLVTVSA VL: QIVLTQSPAIMSAFPGERVTMTCSASSSVRYMYWHQQKPGSSPRLLIYDTSNVASGVPVRFSGSGSGTSYSLTISRDEAMDAATYYCQQWSSYPRTFGGGTKLEIKR : 9.95

Briefly, pKd measured for Mutation 1-28 (antibody, V domains shown) VH: EVQLQQSGTELVRPGALVKLSCKASGFNIKDYYIHWVKQRPRQGLEWIGWIDPENGKTLYDPKFQDKASITSDTSTNTAYLQLRSLTSEDTAVYYCVSAYFRFVYWGQGTLVTVSA VL: QIVLTQSPAIMSAFPGERVTMTCSASTSVRYMYWHQQKPGSSPRLLIYDTSNLASGVPVRFSGSGSGTSYSLTISRDEAMDAATYYCQQWSSYPRTFGGGTKLEIKR : 9.11

Briefly, pKd measured for Mutation 1 (antibody, V domains shown) VH: EVQLQQSGTELVRPGALVKLSCKASGFNIKDYYVHWVKQRPRQGLEWIGWIDPENGKTLYDPKFQDKASITSDTSTNTAYLQLRSLTSEDTAVYYCVTAYVRFVYWGQGTLVTVSA VL: QIVLTQSPAIMSAFPGERVTMTCSASSSVRYMYWHQQKPGSSPRLLIYDTSNVASGVPVRFSGSGSGTSYSLTISRDEAMDAATYYCQQWSSTPRTFGGGTKLEIKR : 8.97

Briefly, pKd measured for WT 1-1 (antibody, V domains shown) VH: EVQLQQSGTELVRPGALVKLSCKASGFNIKEYYIHWVKQRPRQGLEWIGWIDPDNGKTIYDPKVQDKASITSDTSTNTAYLQLRSLTSEDTAVYYCVTAYFRFVYWGQGTLVTVSA VL: QIVLTQSPAIMSAFPGERVTMTCSASTSVKYMYWHQQKPGSSPRLLIYETSNIASGFPVRFSGSGSGTSYSLTISRDEAMDAATYYCQQQSSYPRTFGGGTKLEIKR : 8.22

Briefly, pKd measured for Mutation 1-32 (antibody, V domains shown) VH: EVQLQQSGTELVRPGALVKLSCKASGFNIKDYYLHWVKQRPRQGLEWIGWIDPENGKTIYDPKFQDKASITSDTSTNTAYLQLRSLTSEDTAVYYCVTAYFRFVYWGQGTLVTVSA VL: QIVLTQSPAIMSAFPGERVTMTCSASSSVRYMYWHQQKPGSSPRLLIYDTSNIASGVPVRFSGSGSGTSYSLTISRDEAMDAATYYCQQWSSTPRTFGGGTKLEIKR : 9.46

Briefly, pKd measured for Mutation 1-6 (antibody, V domains shown) VH: EVQLQQSGTELVRPGALVKLSCKASGFNIKDYYVHWVKQRPRQGLEWIGWIDPENGKTIYDPKFQDKASITSDTSTNTAYLQLRSLTSEDTAVYYCVTAYVRFVYWGQGTLVTVSA VL: QIVLTQSPAIMSAFPGERVTMTCSASTSVRYMYWHQQKPGSSPRLLIYDTSNIASGVPVRFSGSGSGTSYSLTISRDEAMDAATYYCQQWSSTPRTFGGGTKLEIKR : 9.10

Briefly, pKd measured for Mutation 1-31 (antibody, V domains shown) VH: EVQLQQSGTELVRPGALVKLSCKASGFNIKDYYIHWVKQRPRQGLEWIGWIDPENGKTLYDPKFQDKASITSDTSTNTAYLQLRSLTSEDTAVYYCVTAYVRFVYWGQGTLVTVSA VL: QIVLTQSPAIMSAFPGERVTMTCSASTSVRYMYWHQQKPGSSPRLLIYDTSNLASGVPVRFSGSGSGTSYSLTISRDEAMDAATYYCQQWSSFPRTFGGGTKLEIKR : 9.94

Briefly, pKd measured for Mutation 1-13 (antibody, V domains shown) VH: EVQLQQSGTELVRPGALVKLSCKASGFNIKDYYIHWVKQRPRQGLEWIGWIDPENGKTIYDPKFQDKASITSDTSTNTAYLQLRSLTSEDTAVYYCVTAYYRFVYWGQGTLVTVSA VL: QIVLTQSPAIMSAFPGERVTMTCSASSSVRYMYWHQQKPGSSPRLLIYDTSNLASGVPVRFSGSGSGTSYSLTISRDEAMDAATYYCQQWSSYPRTFGGGTKLEIKR : 9.31

Briefly, pKd measured for Mutation 1-18 (antibody, V domains shown) VH: EVQLQQSGTELVRPGALVKLSCKASGFNIKDYYVHWVKQRPRQGLEWIGWIDPENGKTLYDPKFQDKASITSDTSTNTAYLQLRSLTSEDTAVYYCVSAYVRFVYWGQGTLVTVSA VL: QIVLTQSPAIMSAFPGERVTMTCSASSSVRYMYWHQQKPGSSPRLLIYDTSNLASGVPVRFSGSGSGTSYSLTISRDEAMDAATYYCQQWSSTPRTFGGGTKLEIKR : 9.05

Briefly, pKd measured for Mutation 1-23 (antibody, V domains shown) VH: EVQLQQSGTELVRPGALVKLSCKASGFNIKDYYLHWVKQRPRQGLEWIGWIDPENGKTIYDPKFQDKASITSDTSTNTAYLQLRSLTSEDTAVYYCVTAYFRFVYWGQGTLVTVSA VL: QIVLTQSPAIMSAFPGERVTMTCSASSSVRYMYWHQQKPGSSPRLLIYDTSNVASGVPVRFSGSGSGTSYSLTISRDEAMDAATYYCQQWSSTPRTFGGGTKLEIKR : 9.34
